tested on: CAL-27 (Oral Cavity Carcinoma); assay: combination Emax (second highest fraction inhibited in the dose matrix, 72 h); higher = more inhibition; extreme values may be limits of the assay

{"compound": "C=CCn1c(=O)c2cnc(Nc3ccc(N4CCN(C)CC4)cc3)nc2n1-c1cccc(C(C)(C)O)n1 [AZD1775] + C1CN(CCC1(C(=O)N[C@@H](CCO)C2=CC=C(C=C2)Cl)N)C3=NC=NC4=C3C=CN4 [Capivasertib] (first compound max 3 µM, partner max 3 µM)", "combination Emax": 0.715}
{"compound": "NC1(C(=O)N[C@@H](CCO)c2ccc(Cl)cc2)CCN(c2ncnc3[nH]ccc23)CC1 [Capivasertib] + CC(C)n1c(=O)n(C)c2cnc3cc(F)c(-c4ccc(OCCCN5CCCCC5)nc4)cc3c21 [AZD1390] (first compound max 10 µM, 7x7, partner max 0.3 µM)", "combination Emax": 0.321}
{"compound": "Cc1c2c(nn1C)CSCc1cc(n(C)n1)CSc1cc(c3ccccc3c1)OCCCc1c(C(=O)O)n(C)c3c-2c(Cl)ccc13 [AZD5991] + CC1(C)CCC(CN2CCN(c3ccc(C(=O)NS(=O)(=O)c4ccc(NCC5CCOCC5)c([N+](=O)[O-])c4)c(Oc4cnc5[nH]ccc5c4)c3)CC2)=C(c2ccc(Cl)cc2)C1 [Venetoclax] (first compound max 1 µM, 7x7, partner max 1 µM)", "combination Emax": 0.955}

###

system: HT55 (Colorectal Carcinoma); test: Bliss excess, mean over the matrix (fraction); higher = more synergy;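 further: after 72 h of two-drug dosing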
// values below are reported Bliss excess

{"molecule": "COc1nnc2ccc(N3CCC(c4ccc(OCCN5CCN(C)C(=O)[C@H]5C)cc4)CC3)nn12 [AZD5153] + C=CCn1c(=O)c2cnc(Nc3ccc(N4CCN(C)CC4)cc3)nc2n1-c1cccc(C(C)(C)O)n1 [AZD1775] (first compound max 1 µM, partner max 1 µM)", "Bliss excess": -0.0112}
{"molecule": "COc1nnc2ccc(N3CCC(c4ccc(OCCN5CCN(C)C(=O)[C@H]5C)cc4)CC3)nn12 [AZD5153] + Cc1c2c(nn1C)CSCc1cc(n(C)n1)CSc1cc(c3ccccc3c1)OCCCc1c(C(=O)O)n(C)c3c-2c(Cl)ccc13 [AZD5991] (first compound max 1 µM, 7x7, partner max 1 µM)", "Bliss excess": -0.0445}
{"molecule": "NC1(C(=O)N[C@@H](CCO)c2ccc(Cl)cc2)CCN(c2ncnc3[nH]ccc23)CC1 [Capivasertib] + Cn1cnc2c(F)c(Nc3ccc(Br)cc3Cl)c(C(=O)NOCCO)cc21 [Selumetinib] (first compound max 10 µM, 7x7, partner max 10 µM)", "Bliss excess": -0.0042}
{"molecule": "CN(C)CCCOc1ccc(-c2ccc3ncc4c(c3c2)n(C2CCOCC2)c(=O)n4C)cn1 [AZD0156] + C[C@@H]1COCCN1C2=NC(=NC(=C2)C3(CC3)[S@](=N)(=O)C)C4=C5C=CNC5=NC=C4 [AZD6738] (first compound max 1 µM, 7x7, partner max 10 µM)", "Bliss excess": -0.0042}
{"molecule": "CCc1c2c(nc3ccc(O)cc13)-c1cc3c(c(=O)n1C2)COC(=O)[C@]3(O)CC [SN-38] + CN(C)CCCOc1ccc(-c2ccc3ncc4c(c3c2)n(C2CCOCC2)c(=O)n4C)cn1 [AZD0156] (first compound max 0.3 µM, 7x7, partner max 1 µM)", "Bliss excess": 0.0776}
{"molecule": "CN(CCO)CC[C@H](CSc1ccccc1)Nc1ccc(S(=O)(=O)NC(=O)c2ccc(N3CCC([C@@H](O)c4ccccc4-c4ccc(Cl)cc4)CC3)cc2)cc1S(=O)(=O)C(F)(F)F [AZD4320] + C[C@@H](Nc1cc(F)cc(F)c1)c1cc(C(=O)N(C)C)cc2c(=O)cc(N3CCOCC3)oc12 [AZD8186] (first compound max 1 µM, 7x7, partner max 3 µM)", "Bliss excess": -0.0003}
{"molecule": "CC1(C)CCC(CN2CCN(c3ccc(C(=O)NS(=O)(=O)c4ccc(NCC5CCOCC5)c([N+](=O)[O-])c4)c(Oc4cnc5[nH]ccc5c4)c3)CC2)=C(c2ccc(Cl)cc2)C1 [Venetoclax] + CCN(CCO)CCCOc1ccc2c(Nc3cc(CC(=O)Nc4cccc(F)c4)[nH]n3)ncnc2c1 [AZD2811] (first compound max 1 µM, 7x7, partner max 1 µM)", "Bliss excess": 0.0034}
{"molecule": "Cc1c2c(nn1C)CSCc1cc(n(C)n1)CSc1cc(c3ccccc3c1)OCCCc1c(C(=O)O)n(C)c3c-2c(Cl)ccc13 [AZD5991] + Cn1cnc2c(F)c(Nc3ccc(Br)cc3Cl)c(C(=O)NOCCO)cc21 [Selumetinib] (first compound max 1 µM, 7x7, partner max 3 µM)", "Bliss excess": 0.043}
{"molecule": "CN(CCO)CC[C@H](CSc1ccccc1)Nc1ccc(S(=O)(=O)NC(=O)c2ccc(N3CCC([C@@H](O)c4ccccc4-c4ccc(Cl)cc4)CC3)cc2)cc1S(=O)(=O)C(F)(F)F [AZD4320] + C[C@@H]1COCCN1C2=NC(=NC(=C2)C3(CC3)[S@](=N)(=O)C)C4=C5C=CNC5=NC=C4 [AZD6738] (first compound max 1 µM, 7x7, partner max 10 µM)", "Bliss excess": 0.0093}
{"molecule": "NC1(C(=O)N[C@@H](CCO)c2ccc(Cl)cc2)CCN(c2ncnc3[nH]ccc23)CC1 [Capivasertib] + COc1nnc2ccc(N3CCC(c4ccc(OCCN5CCN(C)C(=O)[C@H]5C)cc4)CC3)nn12 [AZD5153] (first compound max 10 µM, 7x7, partner max 1 µM)", "Bliss excess": -0.0408}
{"molecule": "COc1nnc2ccc(N3CCC(c4ccc(OCCN5CCN(C)C(=O)[C@H]5C)cc4)CC3)nn12 [AZD5153] + CC1(C)CCC(CN2CCN(c3ccc(C(=O)NS(=O)(=O)c4ccc(NCC5CCOCC5)c([N+](=O)[O-])c4)c(Oc4cnc5[nH]ccc5c4)c3)CC2)=C(c2ccc(Cl)cc2)C1 [Venetoclax] (first compound max 1 µM, 7x7, partner max 1 µM)", "Bliss excess": -0.0387}
{"molecule": "Cc1c2c(nn1C)CSCc1cc(n(C)n1)CSc1cc(c3ccccc3c1)OCCCc1c(C(=O)O)n(C)c3c-2c(Cl)ccc13 [AZD5991] + CCN(CCO)CCCOc1ccc2c(Nc3cc(CC(=O)Nc4cccc(F)c4)[nH]n3)ncnc2c1 [AZD2811] (first compound max 1 µM, 7x7, partner max 1 µM)", "Bliss excess": 0.0472}
{"molecule": "CC1(C)CCC(CN2CCN(c3ccc(C(=O)NS(=O)(=O)c4ccc(NCC5CCOCC5)c([N+](=O)[O-])c4)c(Oc4cnc5[nH]ccc5c4)c3)CC2)=C(c2ccc(Cl)cc2)C1 [Venetoclax] + Cc1cc2ncnn2cc1Nc1ncc2c(n1)n(C1CCOCC1)c(=O)n2C [AZD7648] (first compound max 1 µM, 7x7, partner max 10 µM)", "Bliss excess": -0.0069}
